# protocolSummary: solvent given as SMILES
# measurementConditions: in O
readout: emission maximum

* Nc1cc([NH3+])cc(-c2nc3ccccc3s2)c1 | 493.5 nm
* CN(C)c1ccc(/C=C/c2nc3ccccc3s2)cc1 | 516 nm
* NS(=O)(=O)c1ccc(N2N=C(c3ccc(O)cc3)CC2c2ccc(F)cc2)cc1 (configuration not stated) | 448 nm
* Cn1c(/C=C/c2ccc(/C=C/c3nc4ccccc4[nH]3)cc2)[n+](C)c2ccccc21 | 574 nm
* CC[n+]1nc2ccc(N(C)C)cc2c2cc(C)ccc21 | 542 nm
* Nc1ccc2c(c1)Cc1ccccc1-2 | 377 nm
* Cc1nc2c(c[n+]1C)CN1C(=O)N([C@H]3O[C@@H](CO)[C@H](O)[C@@H]3O)C=CC1=N2 | 414 nm
* C[C@]12C(=O)NC(=O)N([C@H]3CC(O)[C@@H](CO)O3)[C@H]1[C@H]1Oc3cc4oc(=O)ccc4cc3[C@H]12 (some centres not stated) | 465 nm
* CC1(C)C(/C=C/c2cc3ccc(O)cc3oc2=O)=[N+](CCCS(=O)(=O)[O-])c2ccc(S(=O)(=O)O)cc21 | 636 nm
* O=C(O)CCCCCNC(=O)c1cccc2c(=O)c3ccccc3[nH]c12 | 438 nm
* Cn1c(=O)c(/N=N/c2cc(S(=O)(=O)O)ccc2C(=O)O)c(O)c2ccccc21 | 553 nm
* F[B-]1(F)N(c2ccccc2)C=Cc2cccc[n+]21 | 539 nm
* c1ccc(-c2nc(-c3cccc4ccccc34)n3ccccc23)cc1 | 475 nm
* C=CCNc1ccc2c(ccc3oc4cc(=[N+](C)C)ccc-4nc32)c1 | 660 nm
* Cc1ccc(C2CC(c3ccc(O)cc3)=NN2c2ccc(S(N)(=O)=O)cc2)cc1 (configuration not stated) | 449 nm
* N#Cc1coc2ccccc2c1=O | 396 nm
* CC[n+]1c(-c2ccccc2)c2cc(N)ccc2c2ccc(N)cc21 | 606 nm
* O=c1c2ccccc2[nH]c2ccccc12 | 416 nm
* N#Cc1cccc2[nH]ccc12 | 405 nm
* COc1cccc2cc(-c3cc4cccc(OC)c4oc3=O)oc12 | 504 nm
* CC1=N/C(=C\c2ccccc2N)C(=O)N1C | 452 nm
* O=C([O-])c1ccc(C(=O)[O-])c(C2=c3cc4c5c(c3Oc3c2cc2c6c3CCCN6CCC2)CCC[N+]=5CCC4)c1 | 603 nm

###

# protocolSummary: solvent given as SMILES
# measurementConditions: in CC(C)CO
readout: emission maximum (nm)

• Oc1ccc(/N=C/c2ccccc2Oc2ccccc2)cc1 = 410
• COc1ccc(/C=C2\OC(=O)c3ccccc32)cc1 = 451.88
• N#Cc1ccc(/C=C2\OC(=O)c3cc(N)ccc32)cc1 = 502.26
• COC(=O)C(Cc1ccc2oc(-c3ccc(N(C)C)cc3)nc2c1)NC(=O)OC(C)(C)C (centres undefined) = 396.49

###

# protocolSummary: solvent given as SMILES
# measurementConditions: in CCOC(C)=O
readout: emission maximum (nm)

- CCN(CC)c1ccc2c(C(F)(F)F)cc(=O)oc2c1: 479
- N#CSC1=CC2=C(c3ccccc3)c3ccc(SC#N)n3[B-](F)(F)[N+]2=C1N1CCOCC1: 589
- C#CCN1C(=O)/C(=C/c2cc(OC(C)C)ccc2OC(C)C)N=C1C: 475
- CCN(CC)c1ccc2cc(/C=C/C3=CC(/C=C/c4cc5ccc(N(CC)CC)cc5oc4=O)=[O+][B-](F)(F)O3)c(=O)oc2c1: 659
- CC1=CC(C)=[N+]2C1=Cc1c3ccccc3c(C#Cc3cccs3)n1[B-]2(F)F: 632
